Molecular target: human chorionic gonadotropin (hCG) heterodimer (Homo sapiens, UniProt P01215;P0DN86 P01215:25-116,P0DN86:21-165)
Sequence (P01215 25-116, chain 1 of 2, other chains not shown): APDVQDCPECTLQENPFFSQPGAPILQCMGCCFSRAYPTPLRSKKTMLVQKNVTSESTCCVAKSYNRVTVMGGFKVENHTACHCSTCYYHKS
Test: filter; TEM or TESM, 2.1 mM Mg, pH 6.5, 37 C
Conditions: tags: Calbiochem or Vitro Diagnostics (14,000 IU/mg); chain copies: alpha/beta heterodimer (stated); label: 32P; G4 (RNase T1 protection in K+)
result-type: Kd

(Q) Entry H-30 (ssRNA, 2'-NH2 all pyrimidines) RNA: GGGAGGACGAUGCGGUACUGUAAAACAAUCUGGAGGAGGGUCUAGGGGAUGGUGGCAGACGACUCGCCCGA : reported Kd = ?
(A) 20 nM
